Test system: c-Met
Sequence (P08581 25-307 limits assumed): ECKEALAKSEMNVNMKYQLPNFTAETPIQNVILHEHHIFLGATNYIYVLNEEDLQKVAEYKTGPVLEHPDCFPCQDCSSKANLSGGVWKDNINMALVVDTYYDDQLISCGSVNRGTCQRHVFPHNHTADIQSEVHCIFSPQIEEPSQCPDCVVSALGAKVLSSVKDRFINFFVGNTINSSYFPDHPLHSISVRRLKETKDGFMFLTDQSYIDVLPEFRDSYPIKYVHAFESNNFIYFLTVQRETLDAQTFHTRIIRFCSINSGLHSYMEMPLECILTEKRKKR
Sequence (P08581 308-932 limits assumed): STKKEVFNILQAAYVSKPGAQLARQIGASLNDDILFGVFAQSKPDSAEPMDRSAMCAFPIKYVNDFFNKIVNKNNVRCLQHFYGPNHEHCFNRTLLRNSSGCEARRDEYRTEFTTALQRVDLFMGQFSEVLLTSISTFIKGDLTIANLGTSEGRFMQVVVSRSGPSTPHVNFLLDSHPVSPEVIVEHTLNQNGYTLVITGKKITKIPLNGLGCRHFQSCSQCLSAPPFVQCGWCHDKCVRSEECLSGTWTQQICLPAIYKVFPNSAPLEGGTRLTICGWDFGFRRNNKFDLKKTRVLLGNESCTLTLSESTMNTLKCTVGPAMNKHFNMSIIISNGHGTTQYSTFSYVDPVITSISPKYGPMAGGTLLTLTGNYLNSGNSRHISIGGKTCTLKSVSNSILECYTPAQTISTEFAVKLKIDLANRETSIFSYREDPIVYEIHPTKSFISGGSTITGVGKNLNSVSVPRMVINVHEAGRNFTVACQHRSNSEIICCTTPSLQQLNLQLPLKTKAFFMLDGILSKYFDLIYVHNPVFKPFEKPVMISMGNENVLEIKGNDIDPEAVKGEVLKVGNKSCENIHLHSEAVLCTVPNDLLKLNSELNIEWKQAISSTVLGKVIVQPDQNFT
Experimental protocol: BRET analysis of c-Met dimerization on c-Met transfected CHO cells
Format: cell-based
Measurement parameters: CHO cells expressing C-Met-Rluc and C-Met-K1100A-YFP, supernatants
Metric name: inhibition of dimerization (%)
Give the quantity in %, number only.

Exercise: What inhibition of dimerization value was documented for this molecule, 11E1: murine anti-c-Met monoclonal antibody, IgG1 kappa; heavy chain SEQ ID No. 62, light chain SEQ ID No. 63 (antibody, V domains shown, mus musculus) VH: QVQLQQSGAELAKPGASVKMSCKASGYTFTSYWMNWVKQRPGQGLEWIGYINPTTGSTDYNQKLKDKATLTADKSSNTAYMQLSSLTSEDSAVYYCAIGGYGSWFAYWGQGTLVTVSA VL: QIVLTQSPAIMSASPGEKVTLTCSASSSVSSTYLYWYQQKPGSSPKLWIYTTSILASGVPARFSGSGSGTSYSLTISSMETEDAASYFCHQWSSYPFTFGSGTKLDIK ?
Key: 69

Recorded values, source patent US8871909B2.
